Collected growth inhibition values appear next to each entry.
Experiment: NCI Yeast Anticancer Drug Screen. Data for the CLN2oe strain (AID 163);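 also: 0% = growth of vehicle-only control cultures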
Details: S. cerevisiae CLN2oe strain, at 100.0 µM, active compounds read high
Compounds without any hit were thinned out: in the full panel of roughly 79,000, 15% have a hit.
Field format: number, assumed %, no unit text.

Example entries begin here.
[
  {
    "molecule": "CCS(=O)(=O)Nc1ccc(Nc2c3ccccc3nc3ccccc23)c(OC)c1",
    "growth inhibition [%]": 59
  },
  {
    "molecule": "CC(CC/C(=N/O)c1ccccc1)(CC/C(=N\\O)c1ccccc1)[N+](=O)[O-] (stereo unspecified)",
    "growth inhibition [%]": 71
  },
  {
    "molecule": "CNC(=O)OCc1c(COC(=O)NC)c(C)n(-c2ccc(Br)cc2)c1C",
    "growth inhibition [%]": 69
  },
  {
    "molecule": "O=[N+]([O-])c1cn[n+]([O-])c2ccccc12",
    "growth inhibition [%]": 99
  },
  {
    "molecule": "OB(O)c1ccccc1C#Cc1ccccc1",
    "growth inhibition [%]": 40
  },
  {
    "molecule": "COC(=O)C(Cc1c[nH]c2ccccc12)N1CN(C)c2ccccc2C1=O (stereo unspecified)",
    "growth inhibition [%]": 99
  },
  {
    "molecule": "CCOP(=O)(OCC)/C(C#N)=C\\c1cccc2ccccc12",
    "growth inhibition [%]": 98
  },
  {
    "molecule": "CCC(C)(C)c1ccc(Oc2ccccc2)c(N)c1",
    "growth inhibition [%]": 97
  },
  {
    "molecule": "CN1C(=O)C(CC(=O)O)NC1=S (stereo unspecified)",
    "growth inhibition [%]": 2
  },
  {
    "molecule": "CC1(C2CC2)C(C#N)(C#N)C1(C#N)C#N",
    "growth inhibition [%]": 53
  }
]

API: the following record is the query input.
The molecule listed as "CC(=O)CCC1=C(C)C(=O)C(=O)C(C)=C1O" has a reported growth inhibition of 74

Origin of the recorded values: PubChem BioAssay (NCI)
